- Tested Target: autotaxin (Homo sapiens, UniProt Q13822)
- Assay Name: Autotaxin inhibitor screening assay (phosphodiesterase activity, p-nitrophenol cleaved from bis-(p-nitrophenyl) phosphate, absorbance 410 nm)
- Assay type: biochemical
- Setup Conditions: pH 9, compound at 30 μM; BNPP 3 mM, pH 9.0, 37° C., 30 minutes; read-out: Inhibition
- Protocol: As described above, the compounds in the present disclosure have the effect of inhibiting the activity of autotaxin, and can be used as autotaxin inhibitors. […] Please refer to the following experiment, the phosphodiesterase activity of autotaxin was measured using the p-nitrophenol that is a yellow product cleaved by autotaxin from the bis-(p-nitrophenyl) phosphate. […] After 30 minutes, absorbance at 410 nm of the reacted solution was measured. […]
Reported inhibition at 30 µM values for a set of compounds

Compound | inhibition at 30 µM
COC(=O)c1ccc(COc2ccc3c(c2)O/C(=C\c2ccc(F)c(F)c2)C3=O)cc1 | 50 to 80%

Then this compound:
Entry `O=C(O)c1ccc(COc2ccc3c(c2)C/C(=C\c2ccc(OCc4cc(F)c(F)cc4F)cc2)C3=O)cc1` under autotaxin (Homo sapiens, UniProt Q13822) had inhibition at 30 µM of > 80%
